biological target: T1, PSMA Fab (006 PSMA Fab); test: clonal phage ELISA on captured PSMA Fab pre-incubated with PSMA antigen as competitor, anti-M13-HRP detection;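 also: wells blocked with buffer plus PSMA antigen before phage addition, with blocking buffer alone as the no-competitor control, bound phage detected after washing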
T1 construct: also called Anti-PSMA Fab
Where no end group is shown, it is not given here.
assayReadout: Phage binding ELISA signal, Anti-PSMA Fab with PSMA antigen
Just the number, please.

As a guide, the following entries are already answered.
binder	assayValue
ENAKCSPAWMCVGF [Phage-3818]	0.0752
ASISCIPDWMCHGF [Phage-3815]	0.0872
EAPYCRPSWMCAGF (cysteine pairing not given here; also: displayed on phage as fusion to pIII, junction not given here) [Phage-3824]	0.0837
VHIMCVPPWMCERF [Phage-3819]	0.0664
EFKWCVPDWMCYGV (cysteine pairing not given here; also: displayed on phage as fusion to pIII, junction not given here) [Phage-3814]	0.0589
VDRMCVPPWMCDVL [Phage-3827]	0.0859
ATVVCSPPWMCTGF [Phage-3817]	0.0662
LLERCVPSWMCLGF [Phage-3820]	0.102

Task: Which Phage binding ELISA signal, Anti-PSMA Fab with PSMA antigen is listed for QVKYCEPQWMCAGL (cysteine pairing not given here; also: displayed on phage as fusion to pIII, junction not given here) [Phage-3823] ?
Result: 0.0788

Task: How about this binder: VQHWCVPAWMCYGL [Phage-3826]
Result: 0.107
